target: Leukotriene B4 receptor 1 (Homo sapiens); assay: Antagonist activity at LTB4 receptor in fura-2 loaded human U937 cells assessed as inhibition of LTB4-induced calcium mobilization; assay type: functional, cell-based, U-937
endpoint.label: pIC50
pIC50 is defined as minus the log10 of a concentration measured in mol/L.

Suppose we examine the compound Cn1c(N)nc(Cc2ccc3c(c2)OCO3)c1Cc1ccc2c(c1)OCO2 [LEUCETTAMINE A] ; what pIC50 value has been reported?
5.34

---

target: Leukotriene B4 receptor 1 (Homo sapiens, UniProt Q15722); experiment: Displacement of [3H]LTB4 from LTB4 receptor expressed in human U937 cell membrane; type: cell membranes, U-937
Sequence (Q15722 whole entry): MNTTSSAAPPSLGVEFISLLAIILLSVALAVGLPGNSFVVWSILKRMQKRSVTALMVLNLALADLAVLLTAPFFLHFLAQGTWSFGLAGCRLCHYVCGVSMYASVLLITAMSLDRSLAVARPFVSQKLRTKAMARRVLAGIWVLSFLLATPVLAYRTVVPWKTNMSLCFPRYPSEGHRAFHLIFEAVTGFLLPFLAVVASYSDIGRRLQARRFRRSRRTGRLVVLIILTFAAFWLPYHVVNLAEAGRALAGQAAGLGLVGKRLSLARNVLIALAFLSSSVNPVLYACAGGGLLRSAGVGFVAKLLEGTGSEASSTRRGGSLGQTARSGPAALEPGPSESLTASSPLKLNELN
endpoint.label: IC50 (µM)
A number alone suffices; assume µM.

INSERT INTO assay_data (given_smiles, endpoint_label, measure_unit, measurement) VALUES
  ('Cn1c(N)nc(Cc2ccc3c(c2)OCO3)c1Cc1ccc2c(c1)OCO2', 'IC50', 'µM', 4);

Switching to the query record.
Entry `CN1C(=N)N(C)/C(=N/c2nc(Cc3ccc4c(c3)OCO4)c(Cc3ccc4c(c3)OCO4)n2C)C1=O` : reported IC50 = ?
15.6

---

Leukotriene B4 receptor 1 (Homo sapiens, UniProt Q15722) measurements of pKi, listed per entry.
Scale note: pKi = -log10(concentration in M).

API: value(readout=pKi, system=Leukotriene B4 receptor 1 (Homo sapiens, UniProt Q15722)) for record Cn1c(N)nc(Cc2ccc3c(c2)OCO3)c1Cc1ccc2c(c1)OCO2 [LEUCETTAMINE A]
5.89

Under Leukotriene B4 receptor 1 (Homo sapiens, UniProt Q15722): pKi value of CN1C(=N)N(C)/C(=N/c2nc(Cc3ccc4c(c3)OCO4)c(Cc3ccc4c(c3)OCO4)n2C)C1=O [LEUCETTAMIDINE] ?
5.28

Give pKi (Leukotriene B4 receptor 1 (Homo sapiens, UniProt Q15722)) of the following compound: CN1C(=O)/C(=C/c2ccc3c(c2)OCO3)N=C1N [LEUCETTAMINE B]
4.00
